Below, each entry is listed alongside its reported IC50.
biological target: LRRK2 G2019S (Homo sapiens, UniProt Q5S007, G2019S); experiment: LRRK2 G2019S Km ATP LanthaScreen assay; format: biochemical; conditions: read-out: LRRK2 pIC50 (converted)
Sequence (Q5S007 whole entry G2019S): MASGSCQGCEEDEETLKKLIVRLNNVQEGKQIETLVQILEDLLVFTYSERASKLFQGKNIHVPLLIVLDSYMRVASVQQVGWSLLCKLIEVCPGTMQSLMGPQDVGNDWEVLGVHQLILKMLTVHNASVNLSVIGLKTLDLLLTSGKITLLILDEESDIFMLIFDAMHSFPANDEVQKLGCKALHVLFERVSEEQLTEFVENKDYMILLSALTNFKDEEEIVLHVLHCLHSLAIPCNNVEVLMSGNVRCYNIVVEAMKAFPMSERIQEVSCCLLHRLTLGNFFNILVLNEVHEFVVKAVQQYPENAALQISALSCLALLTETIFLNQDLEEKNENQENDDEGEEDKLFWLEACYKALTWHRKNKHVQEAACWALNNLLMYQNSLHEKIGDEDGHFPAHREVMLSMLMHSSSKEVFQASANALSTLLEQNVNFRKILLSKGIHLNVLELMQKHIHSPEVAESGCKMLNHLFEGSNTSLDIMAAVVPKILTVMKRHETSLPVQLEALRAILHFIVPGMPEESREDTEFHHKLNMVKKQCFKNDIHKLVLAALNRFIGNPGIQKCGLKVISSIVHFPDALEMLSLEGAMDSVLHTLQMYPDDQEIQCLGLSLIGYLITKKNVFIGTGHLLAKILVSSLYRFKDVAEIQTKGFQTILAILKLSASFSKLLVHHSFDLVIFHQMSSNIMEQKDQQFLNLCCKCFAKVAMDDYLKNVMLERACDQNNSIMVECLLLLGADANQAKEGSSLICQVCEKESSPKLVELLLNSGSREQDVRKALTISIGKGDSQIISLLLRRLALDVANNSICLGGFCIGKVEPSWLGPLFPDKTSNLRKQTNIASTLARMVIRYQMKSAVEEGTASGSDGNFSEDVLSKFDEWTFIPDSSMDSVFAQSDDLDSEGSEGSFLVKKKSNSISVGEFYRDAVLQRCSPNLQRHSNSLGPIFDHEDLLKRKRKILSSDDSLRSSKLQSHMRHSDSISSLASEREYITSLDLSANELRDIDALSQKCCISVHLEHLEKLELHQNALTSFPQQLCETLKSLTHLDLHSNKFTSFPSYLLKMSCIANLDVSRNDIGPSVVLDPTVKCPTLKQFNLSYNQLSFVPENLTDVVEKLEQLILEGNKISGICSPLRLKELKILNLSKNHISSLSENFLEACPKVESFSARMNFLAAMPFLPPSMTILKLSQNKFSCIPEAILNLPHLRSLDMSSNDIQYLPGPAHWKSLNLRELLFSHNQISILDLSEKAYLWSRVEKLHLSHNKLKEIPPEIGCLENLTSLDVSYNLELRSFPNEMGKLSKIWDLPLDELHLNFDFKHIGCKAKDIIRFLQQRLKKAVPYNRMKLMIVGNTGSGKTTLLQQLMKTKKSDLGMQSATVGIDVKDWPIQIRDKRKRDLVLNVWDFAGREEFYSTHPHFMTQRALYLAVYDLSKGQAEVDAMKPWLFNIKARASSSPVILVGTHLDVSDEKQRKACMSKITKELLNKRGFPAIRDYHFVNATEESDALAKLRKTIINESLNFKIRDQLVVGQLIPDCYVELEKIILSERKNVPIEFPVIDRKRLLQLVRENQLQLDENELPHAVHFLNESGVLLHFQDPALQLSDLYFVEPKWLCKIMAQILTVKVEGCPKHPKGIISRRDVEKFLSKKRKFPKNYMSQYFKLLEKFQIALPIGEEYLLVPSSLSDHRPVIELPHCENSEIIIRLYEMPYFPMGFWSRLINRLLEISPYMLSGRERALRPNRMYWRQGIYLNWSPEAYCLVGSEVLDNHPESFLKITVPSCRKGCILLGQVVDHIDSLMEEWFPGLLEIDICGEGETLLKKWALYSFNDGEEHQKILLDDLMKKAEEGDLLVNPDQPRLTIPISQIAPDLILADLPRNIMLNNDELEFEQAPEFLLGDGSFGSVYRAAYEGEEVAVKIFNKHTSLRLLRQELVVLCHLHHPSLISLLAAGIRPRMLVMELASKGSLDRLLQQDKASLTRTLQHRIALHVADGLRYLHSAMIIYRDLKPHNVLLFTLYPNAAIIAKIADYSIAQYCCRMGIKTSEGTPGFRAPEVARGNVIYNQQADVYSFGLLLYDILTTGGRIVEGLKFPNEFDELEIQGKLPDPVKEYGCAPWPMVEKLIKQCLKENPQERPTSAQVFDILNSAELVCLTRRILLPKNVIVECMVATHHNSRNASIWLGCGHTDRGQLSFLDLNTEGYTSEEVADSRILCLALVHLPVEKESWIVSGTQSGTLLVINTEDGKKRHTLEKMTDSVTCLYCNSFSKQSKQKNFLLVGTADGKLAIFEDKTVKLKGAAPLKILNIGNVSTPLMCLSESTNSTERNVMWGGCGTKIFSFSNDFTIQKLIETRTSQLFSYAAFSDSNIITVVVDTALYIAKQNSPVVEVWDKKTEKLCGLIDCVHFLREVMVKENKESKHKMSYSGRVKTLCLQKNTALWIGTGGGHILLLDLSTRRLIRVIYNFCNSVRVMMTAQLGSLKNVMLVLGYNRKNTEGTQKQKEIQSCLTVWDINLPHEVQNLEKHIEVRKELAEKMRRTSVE
outcomeMeasure: IC50 (nM)

1. CC(C)(O)C1CC1C(=O)Nc1cc2cc(C3CCN(C4(C)COC4)CC3)c(Cl)cc2cn1 (single isomer, unassigned) | 4.47
2. CC1(N2CCC(c3cc4cc(NC(=O)C5CCC(C(F)(F)F)OC5)ncc4cc3Cl)CC2)COCC1O (stereo not shown) [Ex-2.62] | 5.13
3. COC1CCC(C(=O)Nc2cc3cc(C4CCN(C5(C)COCC5O)CC4)c(Cl)cc3cn2)CC1 (single isomer, unassigned) [Ex-10.2] | 46.8
4. CC1(C)CC(C(=O)Nc2cc3cc(C4CCN(C5(C)COCC5O)CC4)c(Cl)cc3cn2)CO1 (stereo not shown) [Ex-2.30] | 0.126

Source: patent US20240398784A1
